# van der Waals contact distance, MASP-2 amino acid atom to compound atom per record follows
- tested-system: MASP-2 CCP2-SP (Homo sapiens (Human), UniProt O00187)
- Sequence (O00187 445-686): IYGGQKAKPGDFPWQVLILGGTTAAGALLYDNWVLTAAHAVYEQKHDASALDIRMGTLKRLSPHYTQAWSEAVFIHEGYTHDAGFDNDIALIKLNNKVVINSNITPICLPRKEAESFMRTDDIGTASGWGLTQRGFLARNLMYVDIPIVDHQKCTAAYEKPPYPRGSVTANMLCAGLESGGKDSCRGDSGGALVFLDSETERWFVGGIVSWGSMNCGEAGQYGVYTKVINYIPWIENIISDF
- Sequence (O00187 364-432 partner): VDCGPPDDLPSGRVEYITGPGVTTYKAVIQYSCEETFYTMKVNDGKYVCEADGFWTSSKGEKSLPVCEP
- method-summary: MASP-2 co-crystallization, X-ray crystallography and structure analysis (H-bonds, van der Waals contacts)
- condition-context: Table A2
Counter-ions that a name gives are not always drawn.
Number only, no unit.

molecule: Cc1nc(N)ccc1CNC(=O)[C@H](C)NC(=O)[C@H]1C[C@H](Cc2cc(Cl)cc(Cl)c2)CN1 [compound 1435, Dihydrochloride]
tested-system: MASP-2 CCP2-SP (Homo sapiens (Human), UniProt O00187)
result: 3.83

molecule: Cc1nc(N)ccc1CNC(=O)[C@H](C)NC(=O)[C@H]1C[C@@H](c2ccccc2)CCN1CCC(=O)O [compound 1411, Trifluoroacetate salt]
tested-system: MASP-2 CCP2-SP (Homo sapiens (Human), UniProt O00187)
result: 3.8

molecule: Cc1nc(N)ccc1CNC(=O)[C@H](C)NC(=O)[C@H]1C[C@H](Cc2cc(-c3ccccc3)cs2)CN1 [compound 1399, Dihydrochloride]
tested-system: MASP-2 CCP2-SP (Homo sapiens (Human), UniProt O00187)
result: 3.7

Would you mind telling me what van der Waals contact distance, MASP-2 amino acid atom to compound atom value was observed for Cc1nc(N)ccc1CNC(=O)[C@H](C)NC(=O)[C@H]1C[C@@H](c2ccccc2)CCN1C ?
3.8

Would you mind telling me what van der Waals contact distance, MASP-2 amino acid atom to compound atom value was observed for C[C@H](NC(=O)[C@H]1C[C@H](Cc2ccccc2)CN1)C(=O)NCc1cnc2c(c1)c(Cl)cn2C [compound 1450, Dihydrochloride] ?
3.44

Would you mind telling me what van der Waals contact distance, MASP-2 amino acid atom to compound atom value was observed for Cc1nc(N)ccc1CNC(=O)[C@H](C)NC(=O)[C@H]1C[C@H](Cc2cccc(-c3ccccc3)c2)CN1 ?
3.74

###

- tested-system: MASP-2 CCP2-SP (Homo sapiens (Human), UniProt O00187)
- method-summary: MASP-2 co-crystallization, X-ray crystallography and structure analysis (H-bonds, van der Waals contacts)
- condition-context: Table A8-6; pharmacophore elements C6, CA3, O3, H1; nearest protein atom in cell to the left
# Pharmacophore protein distance to TRP_655 per record follows

Would you mind telling me what Pharmacophore protein distance to TRP_655 value was observed for C[C@H](NC(=O)[C@H](N)CCCc1ccccc1)C(=O)NCc1ccc(C(=N)N)cc1.Cl.Cl [1042_2] ?
3.27

Would you mind telling me what Pharmacophore protein distance to TRP_655 value was observed for N=C(N)c1ccc(CNC(=O)[C@@H]2CCN2C(=O)[C@H]2Cc3ccccc3CN2)cc1 ?
3.27

Would you mind telling me what Pharmacophore protein distance to TRP_655 value was observed for O=c1oc(-c2ccccc2[N+](=O)[O-])nc2ccccc12 ?
3.76

Would you mind telling me what Pharmacophore protein distance to TRP_655 value was observed for C[C@H](NC(=O)[C@H](N)CCCc1ccccc1)C(=O)NCc1ccc(C(=N)N)cc1.Cl.Cl [1042_3] ?
3.21

###

- tested-system: MASP-2 CCP2-SP (Homo sapiens (Human), UniProt O00187)
- method-summary: MASP-2 co-crystallization, X-ray crystallography and structure analysis (H-bonds, van der Waals contacts)
- condition-context: Table A6-2 pharmacophore angle
- Description: This example illustrates the preparation of recombinant MASP-2 protein, based on UniProt O00187, human mannan-binding lectin serine protease 2. Expression constructs for human MASP-2 CCP2-SP and CCP2-SP-6HIS were generated for recombinant expression in E. coli cells. […]
Counter-ions that a name gives are not always drawn.
readout-label: a(O2, N2, C4)
Number only, no unit.

Known a(O2, N2, C4) results, listed for orientation:
compound: C[C@H](NC(=O)[C@H](N)CCc1cc(Cl)cc(Cl)c1)C(=O)NCc1ccc(C(=N)N)cc1
a(O2, N2, C4): 162.84
//
compound: C[C@H](NC(=O)[C@H](N)CCc1cccc(Cl)c1)C(=O)NCc1ccc(C(=N)N)cc1
a(O2, N2, C4): 161.57
//
compound: C[C@H](NC(=O)[C@@H](CCc1ccccc1)NCc1ccc(N2CCOCC2)cc1)C(=O)NCc1ccc(C(=N)N)cc1
a(O2, N2, C4): 154.82
//
compound: Cc1nc(N)ccc1CNC(=O)[C@H](C)NC(=O)[C@H]1C[C@H](Cc2cccc(Cl)c2)CN1.Cl.Cl [1328_4]
a(O2, N2, C4): 160.57

Missing value: a(O2, N2, C4), MASP-2 CCP2-SP (Homo sapiens (Human), UniProt O00187), entry Cc1nc(N)ccc1CNC(=O)[C@H](C)NC(=O)[C@H]1C[C@H](Cc2cccc(Cl)c2)CN1.Cl.Cl [1328_2] . Fill in?
160.74

Missing value: a(O2, N2, C4), MASP-2 CCP2-SP (Homo sapiens (Human), UniProt O00187), entry Cc1nc(N)ccc1CNC(=O)[C@H](C)NC(=O)[C@H]1C[C@H](Cc2cccc(Cl)c2)CN1.Cl.Cl [1328_1] . Fill in?
161.66

Missing value: a(O2, N2, C4), MASP-2 CCP2-SP (Homo sapiens (Human), UniProt O00187), entry Cc1nc(N)ccc1CNC(=O)[C@H](C)NC(=O)[C@H]1C[C@H](Cc2ccccc2Br)CN1.O=C(O)C(F)(F)F.O=C(O)C(F)(F)F . Fill in?
159.60

Missing value: a(O2, N2, C4), MASP-2 CCP2-SP (Homo sapiens (Human), UniProt O00187), entry Cc1nc(N)ccc1CNC(=O)[C@H](C)NC(=O)[C@H]1C[C@H](Cc2cc(Cl)cc(Cl)c2)CN1 [compound 1435, Dihydrochloride] . Fill in?
164.21

Missing value: a(O2, N2, C4), MASP-2 CCP2-SP (Homo sapiens (Human), UniProt O00187), entry Cc1nc(N)ccc1CNC(=O)[C@H](C)NC(=O)[C@H]1C[C@H](Cc2cccc(Cl)c2)CN1.Cl.Cl [1328_3] . Fill in?
160.41
